# experimental-target: T1, ROR1 naturally expressed on human tumor cell lines (A549, Jeko-1, SW620, PA-1) (human, UniProt Q01973 30-937)
# T1 construct: whole, on cells; also called cells expressing ROR1
# T1 sequence (Q01973 30-937): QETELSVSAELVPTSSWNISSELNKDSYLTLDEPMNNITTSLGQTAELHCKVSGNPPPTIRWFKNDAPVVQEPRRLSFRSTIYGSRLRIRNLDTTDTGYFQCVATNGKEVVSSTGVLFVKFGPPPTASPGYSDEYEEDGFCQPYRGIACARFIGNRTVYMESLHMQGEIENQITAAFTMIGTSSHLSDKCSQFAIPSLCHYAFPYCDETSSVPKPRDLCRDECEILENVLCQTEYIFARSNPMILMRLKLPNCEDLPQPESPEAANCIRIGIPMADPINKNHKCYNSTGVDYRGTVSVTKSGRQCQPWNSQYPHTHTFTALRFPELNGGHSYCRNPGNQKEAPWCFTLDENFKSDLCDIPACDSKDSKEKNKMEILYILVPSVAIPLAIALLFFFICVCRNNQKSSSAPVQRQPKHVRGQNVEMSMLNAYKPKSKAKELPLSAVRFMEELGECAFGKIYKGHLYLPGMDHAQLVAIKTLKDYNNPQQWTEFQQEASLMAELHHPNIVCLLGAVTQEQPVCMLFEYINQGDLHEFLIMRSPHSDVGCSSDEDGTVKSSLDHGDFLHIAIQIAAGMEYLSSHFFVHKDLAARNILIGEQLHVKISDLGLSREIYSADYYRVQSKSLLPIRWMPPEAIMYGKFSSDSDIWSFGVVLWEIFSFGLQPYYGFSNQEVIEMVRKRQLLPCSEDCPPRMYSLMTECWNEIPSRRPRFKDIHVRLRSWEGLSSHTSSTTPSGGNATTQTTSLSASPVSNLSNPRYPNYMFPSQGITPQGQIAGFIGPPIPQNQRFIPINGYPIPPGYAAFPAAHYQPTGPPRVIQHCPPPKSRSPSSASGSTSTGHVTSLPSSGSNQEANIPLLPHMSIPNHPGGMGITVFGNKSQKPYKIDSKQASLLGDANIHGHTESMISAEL
# protocol: FACS on Jeko-1 cells naturally expressing ROR1

binder	unit-of-measurement	Top (MFI)
hz135A2B10-1.1 (antibody, human IgG1, kappa, V domains shown, Humanized, human IgG1/kappa) VH: QVQLVESGGGLVQPGGSLRLSCAASGFAFSTYGMAWVRQAPGKGLEWVASIHKGGFSTYYPDNVKGRFTISRDNAKNSLYLQMNSLRAEDTAVYYCARHDWDGAMDYWGQGTLVTVSS VL: DIQMTQSPSSLSASVGDRVTITCKASQDINSYLNWYQQKPGKAPKTLIYRANRLVDGVPSRFSGSGSGQDYTLTISSLQPEDFATYYCLQFDEFPYTFGQGTKVEIKR	MFI	88300

These measurements were taken from patent EP4772535A1.
